system-name: AMPA type receptors
assay-name: 3H-AMPA Binding (Test 1), rat cerebral cortical membrane homogenate
condition-info: 3H-AMPA 5 nM, rat cerebral cortical membranes, pH 7.1, 0° C., 30 min; read-out: TEST 1 IC50 (displacement of 50% of the specific binding of 3H-AMPA)
# IC50 listing for each entry below
Hi, when you answer, please include the unit after the number. Thanks!

In [3]: df
Out[3]:
                                chem_smiles  measure_name  result
0  O=c1[nH]c2c3ccccc3ccc2n2c(CP(=O)(O)O)nnc12          IC50  480 nM

For the next question, use this compound.
Query :: Endpoint output: IC50 of O=c1[nH]c2cc(C(F)(F)F)ccc2n2c(CP(=O)(O)O)nnc12 . Value?
Result :: 260 nM

Measured values drawn from patent US5559106A for this set.
